# Species on record: Rattus norvegicus
# TEST DETAILS: Open TG-GATES - Regimen: Single
# Format: toxicity, organism-based, Sprague-Dawley
# Design: regimen Single, gender Male, age 6 weeks
# CONDITION PARAMETERS: in vivo, po, 100 mg/kg, 6 h, tissue Kidney, route gavage, dose level High
OBSERVATION TYPE: KIDNEY_TOTAL
Report field: quantity (unit follows the number).

Here are 3 compounds together with their reported answers.
CC1=C(/C=C/C(C)=C/C=C/C(C)=C/CO)C(C)(C)CCC1    1.8 g
CN(C)CCCN1c2ccccc2CCc2ccc(Cl)cc21    2 g
CN(C)CCCN1c2ccccc2CCc2ccccc21    1.8 g

QUERY: Given the compound `CN(C)CCN(Cc1cccs1)c1ccccn1` , what is its reported KIDNEY_TOTAL?
RESULT: 1.7 g
